The origin of these recorded values is paper PMC11640836.

In this section, each of the compounds is paired with its reported pIC50.
STUDY SYSTEM: PARP2 (Mus musculus, UniProt O88554)
Construct: made in house; host or cells: insect cells
Sequence (O88554 whole entry): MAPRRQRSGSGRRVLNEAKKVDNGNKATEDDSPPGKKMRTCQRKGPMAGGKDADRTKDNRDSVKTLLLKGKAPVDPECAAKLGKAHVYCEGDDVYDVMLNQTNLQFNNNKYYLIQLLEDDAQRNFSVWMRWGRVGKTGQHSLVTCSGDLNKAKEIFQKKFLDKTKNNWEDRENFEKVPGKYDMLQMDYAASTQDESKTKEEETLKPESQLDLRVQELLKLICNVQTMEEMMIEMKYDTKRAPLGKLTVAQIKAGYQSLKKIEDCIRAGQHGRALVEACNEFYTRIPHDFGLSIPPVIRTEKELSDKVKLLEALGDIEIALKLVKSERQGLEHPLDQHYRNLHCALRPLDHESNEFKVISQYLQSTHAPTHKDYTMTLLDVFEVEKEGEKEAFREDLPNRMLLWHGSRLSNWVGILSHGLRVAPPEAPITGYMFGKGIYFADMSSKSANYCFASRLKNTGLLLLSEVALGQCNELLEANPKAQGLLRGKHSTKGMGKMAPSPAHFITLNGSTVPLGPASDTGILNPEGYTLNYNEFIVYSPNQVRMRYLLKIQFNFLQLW
PROCEDURE TEXT: PARP2 autopoly(ADP-ribosyl)ation (autoPARylation) enzyme assay with [32P]NAD+
Type: biochemical, murine
DETAILS: 0.6 mM [32P]NAD+; means ±SDs of three independent experiments; read-out: IC50, PARP2 activity in the autoPARylation reaction
Procedure: Human recombinant poly(ADP-ribose) polymerase 1 (PARP1) and murine poly(ADP-ribose) polymerase 2 (PARP2) were expressed in insect cells and purified as previously described. […] The introduction of radioactivity into the reaction product was quantified using a Typhoon FLA 9500 imager (GE Healthcare, Chicago, IL, USA). The half-maximal inhibitory concentration (IC50) values were determined using a six-point concentration response curve in three independent experiments.
pIC50: −log10 of the molar value.

STRUCTURE: NC[C@@H]1CN(CC(=O)O)C[C@H](n2cc(I)c(=O)[nH]c2=O)O1
pIC50: 3.85

STRUCTURE: NC[C@@H]1CNC[C@H](n2cc(Br)c(=O)[nH]c2=O)O1
pIC50: 3.60

STRUCTURE: NC[C@@H]1CNC[C@H](n2cc(I)c(=O)[nH]c2=O)O1
pIC50: 4.20

STRUCTURE: Cc1cn([C@H]2CN(CC(=O)O)C[C@@H](CN)O2)c(=O)[nH]c1=O
pIC50: 4.00
